system: Staphylococcus aureus; test: In vitro antibacterial activity, broth microdilution MIC90; type: cell-based; conditions: Staphylococcus aureus; strain 1, S. aureus; read-out: MIC90
PARAMETER_MEASURED: MIC90 (mg/L)

Answered cases to consult:
INSERT INTO measurements (molecule, units_label, observed_result) VALUES
  ('CC(=O)NC[C@H]1CN(c2ccc(-c3ccc(N4C=NN(C(=O)C(O)CO)CC4)nc3)c(F)c2)C(=O)O1 (stereo partly shown)', 'mg/L', 0.25),
  ('CC(=O)NC[C@H]1CN(c2ccc(-c3ccc(N4C=NN(CCO)CC4)nc3)c(F)c2)C(=O)O1', 'mg/L', 0.5),
  ('O=C1O[C@@H](CO)CN1c1ccc(-c2ccc(N3C=NOCC3)nc2)c(F)c1', 'mg/L', 0.5),
  ('CC(=O)NC[C@H]1CN(c2ccc(-c3ccc(N4CCON=C4C)nc3)c(F)c2)C(=O)O1', 'mg/L', 0.5);

I: COC(=O)NC[C@H]1CN(c2ccc(-c3ccc(C4=NOCCN4)nc3)c(F)c2)C(=O)O1
II: CC(=O)NC[C@H]1CN(c2ccc(N3CCOCC3)c(F)c2)C(=O)O1 [LZD, Linezolid, reference compound]
// pick larger MIC90 from pair: I vs II Respond using the label that marks the chosen record.
II

* * *

Test system: Staphylococcus epidermidis
Experiment: In vitro antibacterial activity, broth microdilution MIC90
Assay type: cell-based
Settings: Staphylococcus epidermidis
Description: MIC90 was measured by broth microdilution method based on CLSI standards [reference: Clinical and Laboratory Standards Institute Document. (2000) Methods for Dilution Antimicrobial Susceptibility Test for Bacteria that Grow Aerobically-Fifth Edition: M7-A5. CLSI, Villanova, Pa.]. […]
Listing: MIC90 of selected molecules
Give just the numeric value; µg/mL need not be written.

INSERT INTO results (molecule, units_label, observed_result) VALUES
  ('CCN1CCN(c2ccc(-c3ccc(N4C[C@H](CO)OC4=O)cc3F)cn2)C=N1 [Compound 29]', 'µg/mL', 4),
  ('C=CCN1CCN(c2ccc(-c3ccc(N4C[C@H](CNC(C)=O)OC4=O)cc3F)cn2)C=N1 [Compound 7]', 'µg/mL', 0.5),
  ('NCC(=O)N1CCN(c2ccc(-c3ccc(N4C[C@H](Cn5ccnn5)OC4=O)cc3F)cn2)C=N1 [Compound 38]', 'µg/mL', 0.5),
  ('CC(=O)NC[C@H]1CN(c2ccc(-c3ccc(N4C=NN(C(=O)CN)CC4)nc3)c(F)c2)C(=O)O1 [Compound 19]', 'µg/mL', 0.25),
  ('CNC(=O)N1CCN(c2ccc(-c3ccc(N4C[C@H](CNC(C)=O)OC4=O)cc3F)cn2)C=N1 [Compound 16]', 'µg/mL', 0.25);

Tell me reported MIC90 for CC(=O)NC[C@H]1CN(c2ccc(-c3ccc(N4C=NN(CC(=O)O)CC4)nc3)c(F)c2)C(=O)O1 [Compound 10] , tested with Staphylococcus epidermidis.
1

Tell me reported MIC90 for CC(=O)NC[C@H]1CN(c2ccc(-c3ccc(N4C=NN(C(=O)COC(C)=O)CC4)nc3)c(F)c2)C(=O)O1 [Compound 12] , tested with Staphylococcus epidermidis.
0.125

* * *

tested on: Linezolid and Vancomycin Resistant Enterococcus faecalis; assay: In vitro antibacterial activity, broth microdilution MIC90; assay type: cell-based; details: strain 7, E. faecalis VanA LR
PARAMETER_MEASURED: MIC90 (µg/mL)
Give just the numeric value; µg/mL need not be written.

Answered cases to consult:
INSERT INTO assay_data (molecule, units_label, observed_result) VALUES
  ('Cl.O=C1O[C@@H](COc2ccon2)CN1c1ccc(-c2ccc(N3C=NNCC3)nc2)c(F)c1 [Compound 44]', 'µg/mL', 16),
  ('Cl.O=C1O[C@@H](CNc2ccon2)CN1c1ccc(-c2ccc(N3C=NNCC3)nc2)c(F)c1 [Compound 39]', 'µg/mL', 4),
  ('NCC(=O)N1CCN(c2ccc(-c3ccc(N4C[C@H](CNc5ccon5)OC4=O)cc3F)cn2)C=N1 [Compound 42]', 'µg/mL', 2);

Tell me reported MIC90 for O=C(C(O)CO)N1CCN(c2ccc(-c3ccc(N4C[C@H](CNc5ccon5)OC4=O)cc3F)cn2)C=N1 (stereo partly shown) [Compound 43] , tested with Linezolid and Vancomycin Resistant Enterococcus faecalis.
2

Tell me reported MIC90 for O=C(CO)N1CCN(c2ccc(-c3ccc(N4C[C@H](CNc5ccon5)OC4=O)cc3F)cn2)C=N1 [Compound 41] , tested with Linezolid and Vancomycin Resistant Enterococcus faecalis.
2

Tell me reported MIC90 for CN1CCN(c2ccc(-c3ccc(N4C[C@H](CNc5ccon5)OC4=O)cc3F)cn2)C=N1 [Compound 40] , tested with Linezolid and Vancomycin Resistant Enterococcus faecalis.
2

Tell me reported MIC90 for Cl.NCC(=O)N1CCN(c2ccc(-c3ccc(N4C[C@H](COc5ccon5)OC4=O)cc3F)cn2)C=N1 [Compound 48] , tested with Linezolid and Vancomycin Resistant Enterococcus faecalis.
32

Recorded values, source patent US8846669B2.
